Measured switch fluorescence ratio, listed per entry for reference.
Test system: ATP;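 note: ATP exposure 15 min at 22 °C before imaging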
Test: switch fluorescence ratio, 500 uM ATP over buffer (Cy3 cluster intensity, sum of 5 cycles each) (fold (ratio)); higher = stronger signal-on switching upon ATP binding; sequences stand for … in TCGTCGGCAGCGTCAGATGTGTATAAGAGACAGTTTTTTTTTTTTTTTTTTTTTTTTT…TC
Details: aptamer strand: ATP DNA aptamer (quencher-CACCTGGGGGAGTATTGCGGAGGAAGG + anchor), 100 nM annealed; ATP concentration: 500 uM

residue_string | switch fluorescence ratio
TTAGGAACTC | 0.982
TTCGTGCGAT | 1.04
CTTATTAAGC | 1.05
CGGTTCCCTA | 0.978
CTTTTTTTTG | 0.993
AGGGAAAGCG | 0.996
GTGTTTCCTG | 0.994
CATAGTATGG | 0.971
GGCCCGGGTT | 0.994
TGTGGGGCAT | 1.15
GAGTCGGGTA | 1.03
ATGTATAGAG | 1.03
CGAGTATTGG | 0.974
GTTTTTTGGA | 1.01
ACAGTGGGAG | 1.01
CGGCGCGGAT | 1.02
GTTTTGCCTG | 0.998
AAGAAAAGGA | 1.02
GAAGGATAGG | 0.975
CGAATATACG | 1.04
CGCTTGGCTG | 0.981
AGGATTCGGT | 1.01
GGAAAGCGTG | 0.993
TCCAGAAGTT | 1.07
CGAATTGATA | 1.01
GTTTGTGTCC | 0.965
CCTTGTTATC | 1.1
TGGAGGTGTG | 0.977
TAGGGGGAAC | 1.01
GAATAGAGGT | 1.02
TTCCCATTTA | 1.04
GGGCCCGGTT | 1
AGAAACAGCT | 1.04
TGAAAGTTGG | 0.997
TTTATGTCCA | 0.992
GCCCCTTAGG | 1.1
GAGGGGCGAT | 0.998
CTCTCGACAC | 1.69
TTTTGACTGT | 0.966
CAGGGAGGAC | 1.01
ATATAAATTA | 1.01
ATCGAAGGCA | 0.986
ATGCAGAAAT | 1.41
GGAATTACAG | 1.02
TTATCCTTTA | 1.02
TTCGTTTTGC | 0.999
TCCAAAAACG | 1.15
CCTGTGGACG | 0.914
CAGGTTTCTA | 1
ATCATGTGGG | 0.999
GCGACATAGG | 0.964
AGTAAATTTG | 0.992
GTGGCTTGGG | 1.02
TAGGATAGTG | 0.978
TTTTAGGGAA | 1.03
AAATTTGGTG | 1.14
AAAGGGTTGT | 1.01
CTGTGGTTGG | 0.981
CAAAGAACTT | 1.01

----------
Tested on: ATP;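 note: ATP exposure 15 min at 22 °C before imaging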
Assay: switch fluorescence ratio, 500 uM ATP over buffer (Cy3 cluster intensity, sum of 5 cycles each) (fold (ratio)); higher = stronger signal-on switching upon ATP binding; sequences stand for … in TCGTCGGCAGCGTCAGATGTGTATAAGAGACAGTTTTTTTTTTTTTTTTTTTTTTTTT…TC
Settings: aptamer strand: ATP DNA aptamer (quencher-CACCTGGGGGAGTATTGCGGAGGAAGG + anchor), 100 nM annealed; ATP concentration: 500 uM

residue_string | tested_target | switch fluorescence ratio
CGTGGAGTCG | ATP | 0.989
TGGGGTCAGC | ATP | 1
TATTTAAAAA | ATP | 1.01
AGGGTTGGTG | ATP | 1.04
ATCGAATTTT | ATP | 1
CAGAGGTGGC | ATP | 1.07
TCGTTTTTGA | ATP | 0.985
CACCTTACTC | ATP | 2.07
TTTTCAATTT | ATP | 0.976
TTGAGCCTGT | ATP | 0.977
TTGCTCTTTG | ATP | 1.01
GGGGCTATCC | ATP | 1.01
CAATCAACCG | ATP | 1.06
TTACGGGGTC | ATP | 1.07
CGTAACTTAC | ATP | 1.6
TATAACATAT | ATP | 1.03
GGGGACTAGG | ATP | 0.982
ACTTTATTAG | ATP | 1.01
GTCAGAGTCT | ATP | 1.05
TTGTTCTTAA | ATP | 1.05
AATCGGGGGG | ATP | 0.974
AAAGAGGAGG | ATP | 0.984
GGAGGGGAGG | ATP | 0.991
ACGACTGAAG | ATP | 1.01
AGGAGGGTAA | ATP | 1.02
CGTAATTGTA | ATP | 1.01
GACGAGCCTG | ATP | 0.996
GGCATTGGGG | ATP | 1.03
AAGTTTATAG | ATP | 1.03
GGTTGAATGT | ATP | 0.984
CGGGGGGCAT | ATP | 0.994
GAGTAAGGGT | ATP | 0.99
GCTATTGGTG | ATP | 1.06
GCGAGGGGCA | ATP | 0.992
ATGGCAATGT | ATP | 1.08
TCGCGGTTCT | ATP | 1.11
ATATTAGAGG | ATP | 0.998
TTTAAAGAAA | ATP | 1.02
AACGGACGGC | ATP | 1.48
GTGGTATGTC | ATP | 1.01
AAATTTTAGG | ATP | 1.03
AAAGGCTGGG | ATP | 1.04
CGAGTTTG | ATP | 0.98
CAGGGATTAG | ATP | 1.01
GATGAGGGTA | ATP | 0.976
GCTAATAAAT | ATP | 1.05
GGTAACATTT | ATP | 1.06
TAGGCTTTAA | ATP | 0.976
TGGTTAGTTT | ATP | 0.997
TTGCGCAATT | ATP | 1.51
TCCAAGACGG | ATP | 1.02
GTTACTAATG | ATP | 1
TTCGTACAT | ATP | 1.13
ATCATGTGCA | ATP | 0.963
GGAGATTTTT | ATP | 0.977
TTTCGGAATT | ATP | 1.35
TCGGTGATGG | ATP | 0.988
TTCATCGACT | ATP | 0.996
TATTAGTAAG | ATP | 0.985
AGTTTTTGGT | ATP | 0.97
GCTTCCTGCC | ATP | 1.4
CCTGGGGGGT | ATP | 1.06
AGTAATACGG | ATP | 1.3
TGGGTGACGG | ATP | 0.958
ATATCTTTCG | ATP | 1.02
ATGAAGGAGC | ATP | 0.992
ATTTTGTAGT | ATP | 1.02
TTTCGGGACT | ATP | 1.03
ACCTGGCGTA | ATP | 1.04
GCCTAATGGT | ATP | 0.993
AAAAAGCTTT | ATP | 1.03
AAAAACGTCA | ATP | 1
AATGGGAGGG | ATP | 1
CTGAGGGGCT | ATP | 0.982
GAGTAGTATT | ATP | 1
CTCATCGGTT | ATP | 1.01
ACTTTGAATC | ATP | 0.998
GCTAGCAATG | ATP | 0.982
AGGGGGCGAT | ATP | 1.01
TGTGGGCTGT | ATP | 1.02
GGTGTAATAG | ATP | 1.04

----------
Tested on: ATP;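 note: ATP exposure 15 min at 22 °C before imaging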
Assay: switch fluorescence ratio, 500 uM ATP over buffer (Cy3 cluster intensity, sum of 5 cycles each) (fold (ratio)); higher = stronger signal-on switching upon ATP binding; sequences stand for … in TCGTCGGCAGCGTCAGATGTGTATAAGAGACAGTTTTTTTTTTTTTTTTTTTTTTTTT…TC
Conditions: aptamer strand: ATP DNA aptamer (quencher-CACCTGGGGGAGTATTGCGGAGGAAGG + anchor), 100 nM annealed; ATP concentration: 500 uM

residue_string | tested_target | switch fluorescence ratio
TCTTTTTGGG | ATP | 1.13
TCAGTAATCT | ATP | 1.01
GGGACGATTT | ATP | 0.995
CCGATTATTT | ATP | 0.997
AATGTAAAAG | ATP | 0.988
AGTAAAAGCG | ATP | 1.04
TGATGTTAGT | ATP | 1.01
CGGGTAGCTT | ATP | 1.02
TTATCTGTAA | ATP | 1.01
AGTTTGAGGT | ATP | 0.995
CGGCGGGTCT | ATP | 0.98
CGGGCTCAGC | ATP | 1.01
ACGTCTTCAC | ATP | 1.07
GGTTAAAGAA | ATP | 1
CCGGGCGGTG | ATP | 1.04
TCCGAAATCA | ATP | 1.6
ACCGCTTGTA | ATP | 1.05
ATATTAGGGT | ATP | 1.01
CCTGTGTAGC | ATP | 1.09
TAGGAAGAGG | ATP | 0.986
AGCAGTTCGG | ATP | 1
GTGTTATGAG | ATP | 0.995
ATTATGCTG | ATP | 0.98
ATTTGCGTTC | ATP | 1.01
TGTTGCAATT | ATP | 1.01
GGGAAAAAGA | ATP | 1.03
TTTATAGTGT | ATP | 0.989
AAATATGGTT | ATP | 1.02
AAGGGGGGCG | ATP | 1.02
AGAAAAATGC | ATP | 1.04
TCTGGATCA | ATP | 1.01
GTGGTCGAGT | ATP | 0.989
GTGGTATCGG | ATP | 0.989
ATGGTTTGAG | ATP | 0.997
CCCTAGTGTG | ATP | 2.97
GGCATTTGAC | ATP | 1.02
TTAAGGCCAT | ATP | 1.08
TGGGGGGGGG | ATP | 1.02
AATGGATTTC | ATP | 1
GGAGGAAATT | ATP | 1.01
ATACTGCTCT | ATP | 0.968
AGGGCAGGTA | ATP | 1
CGTGGCCTGT | ATP | 0.994
CTAAGCTTTG | ATP | 1
ATCGCCAGGC | ATP | 1.01
CAGGGGGGCG | ATP | 1.04
CCGGACCCAA | ATP | 1.75
TTTCTCGTAA | ATP | 1.58
TCGGCTTGGG | ATP | 0.987
CAATGGTCCA | ATP | 1.03
TCCGACGTAG | ATP | 1.19
AAGAGACTGT | ATP | 1
TTTGTCTAG | ATP | 1.02
ATATTATTCT | ATP | 1
CTTAGATGGT | ATP | 0.975
TATATAGCGC | ATP | 0.983
